Each recorded value in this set is attributed to patent US20240122941A1.

Listed next: entries and their corresponding IC50.
# Test system: JMU-RTK-2+SMARCB1 cells (JMU-RTK-2 cells overexpressing SMARCB1)
# Test Method Notes: Selectivity in cell growth suppression, JMU-RTK-2+SMARCB1 cells
# Condition: 144 h, read-out: JMU-RTK-2 + SMARCB1 IC50
API: value field is a number in µM; no unit string.

Study these solved cases before continuing.
{"columns": ["Compound", "Subject Of Test", "IC50 / µM"],
 "data": [
  ["CCN(CC)c1ccc(-c2nc3cc(C(=O)NC)ccc3n2Cc2ccn(CC)n2)cn1 [Compound 6]", "JMU-RTK-2+SMARCB1 cells (JMU-RTK-2 cells overexpressing SMARCB1)", 1.3],
  ["O=C(Nc1ccc2[nH]ncc2n1)C1CC(F)CN1C(=O)C1(c2ccc(OC(F)F)cc2)CCC(F)(F)CC1 (stereo not shown) [Compound 5]", "JMU-RTK-2+SMARCB1 cells (JMU-RTK-2 cells overexpressing SMARCB1)", 8.8],
  ["Cn1cc(C(=O)Nc2ccc3c(c2)OCCO3)c2ccccc2c1=O [Compound 12]", "JMU-RTK-2+SMARCB1 cells (JMU-RTK-2 cells overexpressing SMARCB1)", 14.9]
]}

# IC50 lookup, item Cn1cc(-c2ccc3c(c2)CC[C@]32NC(=O)N(CC(=O)N3Cc4cc(F)ccc4OC[C@H]3C(F)(F)F)C2=O)cn1 [Compound 15]
3.4
